# study system: Thyrotropin receptor (Homo sapiens) (UniProt P16473)
# Sequence (P16473 whole entry, looked up): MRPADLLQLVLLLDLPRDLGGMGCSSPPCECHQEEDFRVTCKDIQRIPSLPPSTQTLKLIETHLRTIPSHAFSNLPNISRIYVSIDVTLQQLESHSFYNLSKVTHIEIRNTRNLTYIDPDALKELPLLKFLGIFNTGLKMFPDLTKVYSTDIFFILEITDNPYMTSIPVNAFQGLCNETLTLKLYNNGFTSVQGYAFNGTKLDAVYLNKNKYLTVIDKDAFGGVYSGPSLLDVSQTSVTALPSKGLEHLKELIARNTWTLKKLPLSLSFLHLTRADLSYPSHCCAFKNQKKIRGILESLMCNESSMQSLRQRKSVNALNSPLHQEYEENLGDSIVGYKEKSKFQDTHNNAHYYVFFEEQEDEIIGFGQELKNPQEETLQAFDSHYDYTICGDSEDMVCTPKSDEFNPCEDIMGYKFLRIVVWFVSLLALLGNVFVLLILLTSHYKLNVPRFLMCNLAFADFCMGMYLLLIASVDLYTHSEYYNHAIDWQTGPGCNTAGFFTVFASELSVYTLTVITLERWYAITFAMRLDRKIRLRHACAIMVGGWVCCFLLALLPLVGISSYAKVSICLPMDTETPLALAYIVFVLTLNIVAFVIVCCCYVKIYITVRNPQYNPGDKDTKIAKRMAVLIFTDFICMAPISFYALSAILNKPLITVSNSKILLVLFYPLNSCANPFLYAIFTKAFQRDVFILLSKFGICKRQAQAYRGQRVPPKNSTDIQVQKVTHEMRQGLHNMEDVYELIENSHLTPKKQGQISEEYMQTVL
# protocol text: qHTS assay to identify small molecule antagonists of the thyroid stimulating hormone receptor (TSHR) signaling pathway (AID 1259385); further: nearly all actives have a fitted effect of over 20% in size
# recorded conditions: TSHR-HEK293 cAMP HTRF, TSH-stimulated antagonist mode; series mostly up to 92.4 µM
Records with an inconclusive call do not appear. Activity calls are given as the source filed them. The call rests on the fitted dose curve.
Outcomes: active, inactive

> print(dat)
                           structure.smiles  answer.label
1            Cc1cc(O)c(C(C)(C)C)cc1C(C)(C)C      inactive
2  O=C(NO)C1(NS(=O)(=O)c2ccc(Oc3ccc(F)cc3)cc2)CCOCC1      inactive
3       CSc1ccc(C(=O)c2[nH]c(=O)[nH]c2C)cc1      inactive
4                 CCCCCCCCCCCC(=O)NCCCN(C)C        active
5  Cc1ccc2oc(CN(Cc3ccccc3)C(=O)Nc3c(F)cc(F)cc3F)c(-c3ccc(Cl)cc3)c2c1      inactive
6                        Clc1ccc2n[nH]nc2c1      inactive

###

# protocol text: qHTS RealTime-Glo MT Cell Viability Assay in HEK293 cells - 0 hour (AID 1224880); further: top concentration of the series differs between compounds; nearly all actives have a fitted effect of over 45% in size
# recorded conditions: RealTime-Glo luminescence; series mostly up to 76.8 µM
Records with an inconclusive call do not appear. Activity calls are given as the source filed them. The call rests on the fitted dose curve; in most records, active means well fitted cell-killing curve with a large enough effect in the repeat runs; inconclusive means weak or mixed curves, or effect the other way; inactive means flat fitted curve, though single readings scatter.
quantity name: outcome

> print(dat)
                                    compound    result
 1  Cc1cccc(CN2CCN(C(c3ccccc3)c3ccc(Cl)cc3)CC2)c1 (stereo not drawn)  inactive
 2              O=C(Oc1cccc2cccnc12)c1ccccc1  inactive
 3  C=CC(=O)OCC(CO)(COCC(COC(=O)C=C)(COC(=O)C=C)COC(=O)C=C)COC(=O)C=C  inactive
 4                        Clc1ccc2n[nH]nc2c1  inactive
 5                             CCCCCCCCCCC=O  inactive
 6  CC(=O)SC[C@@H](Cc1ccccc1)C(=O)NCC(=O)OCc1ccccc1  inactive
 7  Cc1[nH]cnc1C[C@H]1CCc2c(C)c3ccccc3n2C1=O  inactive
 8                  CC(C)(C)c1ccc(C(=O)O)cc1  inactive
 9                            O=C1C=CC(=O)N1  inactive
10  OC1(c2ccc(Cl)c(C(F)(F)F)c2)CCN(CCCC(c2ccc(F)cc2)c2ccc(F)cc2)CC1  inactive
11  CCCCc1oc2ccc(NS(C)(=O)=O)cc2c1C(=O)c1ccc(OCCCN(CCCC)CCCC)cc1  inactive
12  CC(C)(C)C(=O)OCOC(=O)C1N2C(=O)CC2S(=O)(=O)C1(C)C (stereo not drawn)  inactive
13                        OCc1c[nH]c2ccccc12  inactive
14  CCCC(=O)OC[C@@H](OC(=O)CCC)[C@@H](OC(=O)CCC)[C@H](Cn1c2nc(=O)[nH]c(=O)c-2nc2cc(C)c(C)cc21)OC(=O)CCC  inactive
15  NC(=NCCCCCCN=C(N)/N=C(\N)Nc1ccc(Cl)cc1)/N=C(\N)Nc1ccc(Cl)cc1  inactive
16  CCCCCCCC(=O)[O-].CCCCCCCC(=O)[O-].[Zn+2]  inactive
17                    Cc1ccc(O)c(C(C)(C)C)c1  inactive
18                 N=C1N=C(N)c2cc3ccccc3cc21  inactive
19          O=C1CCCc2c1cc1ccc3cccc4ccc2c1c34  inactive
20                    Oc1ccc(N=Nc2ccccc2)cc1  inactive
21  CC[C@@]1(O)C(=O)OCc2c1cc1n(c2=O)Cc2cc3c(CN(C)C)c(O)ccc3nc2-1  inactive
22  CC(C)n1nc(-c2cc3cc(O)ccc3[nH]2)c2c(N)ncnc21  inactive
23  Cn1cc(C(=O)[C@@H]2CCc3nc[nH]c3C2)c2ccccc21  inactive

###

# protocol text: Caspase-3/7 induction in HepG2 cells by small molecules, qHTS cell viability counter screen (AID 1346981); further: nearly all actives have a fitted effect of over 30% in size
# recorded conditions: CellTiter-Fluor fluorescence, 17 h; series mostly up to 92.4 µM
Results filed as inconclusive are left out. Activity calls are given as the source filed them. Calls come from the whole dose curve; as a rule, active = well fitted cell-killing curve with a large enough effect in the repeat runs; inconclusive = weak or mixed curves, or effect the other way; inactive = flat fitted curve, though single readings scatter.
Classes used: active, inactive

> print(dat)
                                   molecule  answer.label
1                              CCC(N)(CO)CO      inactive
2                        Cc1ccc(O)c2ncccc12      inactive
3  CCCC(c1cc(C(C)(C)C)c(O)cc1C)c1cc(C(C)(C)C)c(O)cc1C        active
4  [Cl][Bi]([Cl])([c]1ccccc1)([c]1ccccc1)[c]1ccccc1        active
5  CCC(C)(C)C1CCCCC1OC(C)=O (configuration not stated)      inactive
6  OC1(c2ccc(Cl)c(C(F)(F)F)c2)CCN(CCCC(c2ccc(F)cc2)c2ccc(F)cc2)CC1        active
7  CCC(Cl)C(Cl)C(Cl)CC(Cl)C(Cl)C(C)Cl (configuration not stated)      inactive

###

# protocol text: qHTS assay to identify small molecule HDAC inhibitors (AID 1259364);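 further: wild-type HCT-116 cells with endogenous class I/II HDAC activity; nearly all actives have a fitted effect of over 45% in size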
# recorded conditions: HCT-116 HDAC-Glo I/II luminescence, 2 h; series mostly up to 92.4 µM
Records with an inconclusive call do not appear. Activity calls are given as the source filed them. The call rests on the fitted dose curve; in most records, active means well fitted inhibition curve with a large enough effect in the repeat runs; inconclusive means weak or mixed curves; inactive means flat fitted curve, though single readings scatter.
Outcomes: active, inactive

> print(dat)
                                    compound  answer.label
 1                             CSc1cnc(C)cn1      inactive
 2  CCN(Cc1cccnc1)C(=O)c1cccc(Cl)c1[C@]1(C)C(=O)N(Cc2ccc(OC)cc2OC)c2ccc(Cl)cc21      inactive
 3                    Clc1ccc2cc3ccccc3cc2c1        active
 4     CCc1cc(Cc2cc(CC)c(N)c(CC)c2)cc(CC)c1N      inactive
 5              O=C(N/N=C/c1ccccc1O)c1ccncc1        active
 6  C[C@H]1[C@H]2CC[C@H]3[C@@H]4CC=C5C[C@@H](N(C)C)CC[C@]5(C)[C@H]4CC[C@]23CN1C      inactive
 7                  CC(C)(C)c1ccc(C(=O)O)cc1      inactive
 8  CCOC(=O)/C=C(C)/C=C/C=C(C)/C=C/c1c(C)cc(OC)c(C)c1C      inactive
 9  CCCCc1oc2ccc(NS(C)(=O)=O)cc2c1C(=O)c1ccc(OCCCN(CCCC)CCCC)cc1      inactive
10                             CCCCCCCCCCC=O      inactive
11  Clc1ccc(C(Cn2ccnc2)OCc2ccc(Sc3ccccc3)cc2)c(Cl)c1 (stereo unspecified)      inactive

###

# protocol text: qHTS RealTime-Glo MT Cell Viability Assay in HepG2 cells - 16 hour (AID 1224885); further: nearly all actives have a fitted effect of over 50% in size
# recorded conditions: RealTime-Glo luminescence; series mostly up to 76.8 µM
Results filed as inconclusive are left out. Active and inactive are the calls of the source. Calls come from the whole dose curve; as a rule, active = well fitted cell-killing curve with a large enough effect in the repeat runs; inconclusive = weak or mixed curves; inactive = flat fitted curve, though single readings scatter.
Classes used: True = active, False = inactive

> print(dat)
                                    compound  answer.label
 1  CCCCCCCC(=O)[O-].CCCCCCCC(=O)[O-].[Zn+2]         False
 2  CCCCC(CC)CN=C(N)NC(N)=NCCCCCCN=C(N)NC(N)=NCC(CC)CCCC (stereo not drawn)          True
 3  CC/C(=C(\c1ccc(O)cc1)c1ccc(OCCN(C)C)cc1)c1ccccc1          True
 4  CCCCCCCCCCCCCC[P+](CCCC)(CCCC)CCCC (tested in a mixture with another compound)          True
 5                     O=c1[nH]cnc2nc[nH]c12         False
 6  CC(=O)N1CCN(c2ccc(OC[C@H]3CO[C@](Cn4ccnc4)(c4ccc(Cl)cc4Cl)O3)cc2)CC1          True
 7  OCCN(CCO)c1nc(N2CCCCC2)c2nc(N(CCO)CCO)nc(N3CCCCC3)c2n1         False
 8                  O=CC=C(c1ccccc1)c1ccccc1         False
 9             Nc1ccc2c3c(cccc13)-c1ccccc1-2         False
10                       Nc1c(Cl)cc(Cl)cc1Cl         False
11  O=C(Nc1cccc([N+](=O)[O-])c1)c1cc2ccccc2cc1O         False
12               Oc1cccc2cc3cccc(O)c3c(O)c12         False
13  O=C(OCC(COC(=O)c1ccccc1)(COC(=O)c1ccccc1)COC(=O)c1ccccc1)c1ccccc1         False
14                    Cc1cccc(S(=O)(=O)O)c1C         False
15                    O=C(O)c1ccc(Cl)c(Cl)c1         False
16                  NNC(=O)c1cccc(C(=O)NN)c1         False
17               CC(C)C(C)(C)C(C)(C)C(C)(C)S         False
18  Cc1onc(-c2ccccc2Cl)c1C(=O)N[C@@H]1C(=O)N2[C@@H]1SC(C)(C)[C@@H]2C(=O)O         False
19        CCCCCCCCCCCC[N+](C)(C)CCCCCCCCCCCC          True
20               NC(=O)NS(=O)(=O)c1ccc(N)cc1         False
21                Cc1cc(N)c(S(=O)(=O)O)cc1Cl         False
22  Cc1onc(-c2c(Cl)cccc2Cl)c1C(=O)N[C@@H]1C(=O)N2[C@@H]1SC(C)(C)[C@@H]2C(=O)O         False
23  C[n+]1cc2c3c(ccc2c2ccc4cc5c(cc4c21)OCO5)OCO3          True
